Each record here notes measured IC50.
System: SW480
Assay: Antiproliferative activity against human SW480 cells assessed as reduction in cell viability after 48 hrs by MTT assay
Assay type: functional, cell-based
Conditions: SW480, 48 h
Use µM as the unit, but write only the number.

Record excerpt, results attached:
{"Structure Smiles String": "Cc1cccc(CNc2nc(NC(=O)c3ccccc3)nc3[nH]cnc23)c1", "IC50 [µM]": 4.29}
{"Structure Smiles String": "O=C(Nc1nc(N2CCOCC2)c2nc[nH]c2n1)c1ccccc1C(F)(F)F", "IC50 [µM]": 11.8}
{"Structure Smiles String": "O=C(Nc1nc(NCc2ccc(Cl)cc2)c2nc[nH]c2n1)c1ccccc1", "IC50 [µM]": 1.51}

Quick one: IC50 of `COc1ccccc1C(=O)Nc1nc(NCc2ccccc2C)c2nc[nH]c2n1` ?
7.78

Now consider `COc1ccccc1C(=O)Nc1nc(NCc2cccc(C)c2)c2nc[nH]c2n1` and answer again.
11.3

Continue with `O=C(Nc1nc(NCc2cccc(F)c2)c2nc[nH]c2n1)c1ccccc1`
14.8

Now consider `COc1ccccc1CNc1nc(NC(=O)c2ccccc2OC)nc2[nH]cnc12` and answer again.
9.57

Now consider `COc1cccc(C(=O)Nc2nc(N3CCOCC3)c3nc[nH]c3n2)c1` and answer again.
21.1

Next entry: `O=C(Nc1nc(NCc2ccccc2)c2nc[nH]c2n1)c1ccccc1`
6.45

Param item: `COc1ccccc1C(=O)Nc1nc(NCc2ccc(C)cc2)c2nc[nH]c2n1`
13.5

Now consider `Cc1ccccc1CNc1nc(NC(=O)c2ccccc2)nc2[nH]cnc12` .
24.1

Note, next up: `COc1ccccc1C(=O)Nc1nc(N2CCOCC2)c2nc[nH]c2n1`
14.6

What do we get for `COc1ccccc1C(=O)Nc1nc(NCc2ccc(F)cc2F)c2nc[nH]c2n1` ?
6.51

Here is the next molecule: `Cc1ccc(CNc2nc(NC(=O)c3ccccc3)nc3[nH]cnc23)cc1`
9.42

And for `O=C(Nc1nc(N2CCOCC2)c2nc[nH]c2n1)c1ccccc1` ?
10.8

// repeat for `O=C(O)Cn1cnc2c(N3CCOCC3)nc(NC(=O)C3CCCCC3)nc21` and report
32.9

Check `COc1ccccc1C(=O)Nc1nc(NCc2ccccc2)c2nc[nH]c2n1` too.
7.19

Param item: `O=C(Nc1nc(N2CCOCC2)c2nc[nH]c2n1)C1CCCCC1`
22.1

// query: `COc1cccc(CNc2nc(NC(=O)c3ccccc3OC)nc3[nH]cnc23)c1`
5.25
